# study target: T1, TNFR1 (Homo sapiens, UniProt P19438)
# T1 chain: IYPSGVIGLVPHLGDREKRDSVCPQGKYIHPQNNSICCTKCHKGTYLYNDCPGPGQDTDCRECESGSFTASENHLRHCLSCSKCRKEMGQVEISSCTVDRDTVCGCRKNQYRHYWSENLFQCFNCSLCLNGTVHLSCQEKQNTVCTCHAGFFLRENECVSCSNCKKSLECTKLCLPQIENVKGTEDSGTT
# assay name: yeast display SC50
Reported values of apparent Kd (screen) for individual entries
State the answer as a number, implicitly in nM.

binder	quantity unit	value observed
R50L (designed binder) MTLQELLREEALRRAEAEAFRYALELLAEKFPEQKEYLLDLAEEIESQILSLSGVDVEDVRKFLDKEWAWVKELLAEHPAELAEVEAARAARLAELRAEVEAKVAA	nM	0.869

Please find the next binder below.
### Prompt # lookup: apparent Kd (screen) of L27C (designed binder) MTLQELLREEALRRAEAEAFRYALELCAEKFPEQKEYLLDLAEEIESQIRSLSGVDVEDVRKFLDKEWAWVKELLAEHPAELAEVEAARAARLAELRAEVEAKVAA
### Response 0.539
